- assay_info: folding enthalpy; higher = less favourable; fluorescence melt of hairpins on a sequencing array, two-state fit
- condition: sodium 0.088 M
Note to self: values exactly at -20 kcal/mol are Fulfilled. So folding enthalpy at or above -20 kcal/mol is Fulfilled, below is Not fulfilled.

Would you please look over these solved cases?
GCGGGCGAAAGCCAACGC ((((((....)))..)))    Not fulfilled
GATCCCGAAAGGGATATC ((((((....)))..)))    Fulfilled
GCTATAGGAAACTATAGC (((((((....)))))))    Not fulfilled
GGCTCCGGAAACGGGGTC (.(.(((....))).).)    Not fulfilled
GATCAGGAGACTGATC ((((((....))))))    Not fulfilled

[ask] Does folding enthalpy meet or surpass -20 kcal/mol for GCGGGGGCCCGC ((((....)))) ?
[reply] Not fulfilled

[ask] Does folding enthalpy meet or surpass -20 kcal/mol for GGAGTCGAAAGACTTTCC ((((((....)))..))) ?
[reply] Fulfilled

[ask] Does folding enthalpy meet or surpass -20 kcal/mol for GGCCTGGGAAACTAGGCC (((((.(....).))))) ?
[reply] Not fulfilled

[ask] Does folding enthalpy meet or surpass -20 kcal/mol for GCTTTGCGAAAGCCCAGC (((..((....))..))) ?
[reply] Fulfilled

[ask] Does folding enthalpy meet or surpass -20 kcal/mol for GGCTGCGAAAGCATGCC ((((((....))).))) ?
[reply] Not fulfilled

[ask] Does folding enthalpy meet or surpass -20 kcal/mol for GACGCCGAAAGGCCTGTC ((((((....)))..))) ?
[reply] Fulfilled

[ask] Does folding enthalpy meet or surpass -20 kcal/mol for GATCCTTTTCAGGATC ((((((....)))))) ?
[reply] Not fulfilled
